# TEST_TARGET: Recombinant human c-Cbl (aa 47-435) (Homo sapiens, UniProt P22681)
# Sequence (P22681 47-435): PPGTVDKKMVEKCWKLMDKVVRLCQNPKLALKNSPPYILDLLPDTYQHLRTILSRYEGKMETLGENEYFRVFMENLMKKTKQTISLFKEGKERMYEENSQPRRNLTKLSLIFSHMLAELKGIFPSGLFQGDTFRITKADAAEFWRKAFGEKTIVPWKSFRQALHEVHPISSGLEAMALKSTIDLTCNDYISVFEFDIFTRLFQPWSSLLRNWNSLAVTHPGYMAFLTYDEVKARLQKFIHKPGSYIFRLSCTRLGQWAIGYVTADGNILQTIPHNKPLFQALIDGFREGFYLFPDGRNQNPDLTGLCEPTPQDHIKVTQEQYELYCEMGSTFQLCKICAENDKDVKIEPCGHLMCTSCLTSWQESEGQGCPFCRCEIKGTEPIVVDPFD
# TEST: c-Cbl Biochemical Assay (TR-FRET)
# CONDITION_CONTEXT: hc-Cbl Biochemical Assay (TR-FRET); read-out: TR-FRET hcCbl IC50
OBSERVABLE: IC50

1) COCC1(CNCc2cc(C(F)(F)F)c3oc(-c4cccc(-c5ccc(F)cc5-c5nncn5C)c4)nc3c2)CCCC1 [FC-2]; < 200 nM
2) COC(=O)C1(c2cc(F)c3oc(-c4cc(-c5ccc(F)cc5-c5nncn5C)cc(C5CC5)n4)nc3c2)CC1 [AGM-8]; 1000 to 10000 nM
3) Cn1cnnc1-c1cc(F)ccc1-c1cccc(-c2nc3cc(CN[C@@H]4CCC[C@@H]4O)cc(C(F)(F)F)c3o2)c1 [Example T-5]; 1000 to 10000 nM
4) COc1cc(CNCC2COC2)cc2nc(-c3cccc(-c4ccc(F)cc4-c4nncn4C)c3)oc12 [GZ-1]; 200 to 1000 nM

* * *

# TEST_TARGET: Recombinant human c-Cbl (aa 47-435) (Homo sapiens, UniProt P22681)
# Sequence (P22681 47-435): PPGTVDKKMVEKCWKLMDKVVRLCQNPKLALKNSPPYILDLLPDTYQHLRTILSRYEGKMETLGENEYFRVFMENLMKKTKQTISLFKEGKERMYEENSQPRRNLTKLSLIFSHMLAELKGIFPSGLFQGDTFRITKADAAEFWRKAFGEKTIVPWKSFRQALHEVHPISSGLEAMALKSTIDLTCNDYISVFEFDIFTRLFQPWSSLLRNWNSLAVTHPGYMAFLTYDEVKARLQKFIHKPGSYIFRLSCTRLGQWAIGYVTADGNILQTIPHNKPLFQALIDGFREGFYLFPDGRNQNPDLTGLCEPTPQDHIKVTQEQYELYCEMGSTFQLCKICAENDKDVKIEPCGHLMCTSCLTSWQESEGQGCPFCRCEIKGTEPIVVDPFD
# TEST: c-Cbl Biochemical Assay (TR-FRET)
# CONDITION_CONTEXT: hc-Cbl Biochemical Assay (TR-FRET); read-out: TR-FRET hcCbl IC50
OBSERVABLE: IC50

1) Cn1cnnc1-c1cc(F)ccc1-c1cccc(-c2nc3cc(CN[C@@H]4CCC[C@@]4(O)C(F)(F)F)cc(C(F)(F)F)c3o2)c1; < 200 nM
2) Cc1cc(C(C)(C)N)cc2nc(-c3cc(-c4ccc(F)cc4-c4nncn4C)cc(C4CC4)n3)oc12; 1000 to 10000 nM
3) Cn1cnnc1-c1cc(F)ccc1-c1cccc(-c2nc3cc(CNC[C@H](O)C4CC4)cc(C(F)(F)F)c3o2)c1 (single isomer, unassigned); < 200 nM
4) COc1cc(CN[C@H]2C[C@H](O)C2)cc2nc(-c3cccc(-c4ccc(F)cc4-c4nncn4C)c3)oc12; 1000 to 10000 nM
5) Cn1cnnc1-c1ccccc1-c1cc(-c2nc3cc(CN4CCC5(CC5)C4)cc(C(F)(F)F)c3o2)nc(C2CC2)c1; 1000 to 10000 nM
6) C[C@@H]1CN(Cc2cc(C(F)(F)F)c3[nH]c(-c4cccc(-c5ccc(F)cc5-c5nncn5C)c4)nc3c2)CCO1; 1000 to 10000 nM
7) Cn1cnnc1-c1cc(F)ccc1-c1cc(-c2nc3cc(CN[C@@H]4CCC[C@@H]4O)cc(C(F)(F)F)c3[nH]2)nc(C2CC2)c1; < 200 nM
8) [2H]C([2H])(N[C@@H]1CCC[C@@H]1O)c1cc(C(F)(F)F)c2oc(-c3cccc(-c4ccc(F)cc4-c4nncn4C)c3)nc2c1; < 200 nM
9) Cn1cnnc1-c1cc(C#N)ccc1-c1cccc(-c2nc3cccc(C(F)(F)F)c3o2)c1; 10000 to 50000 nM

* * *

# maps each entry to its IC50
# TEST_TARGET: Recombinant human c-Cbl (aa 47-435) (Homo sapiens)
# Sequence (P22681 47-435): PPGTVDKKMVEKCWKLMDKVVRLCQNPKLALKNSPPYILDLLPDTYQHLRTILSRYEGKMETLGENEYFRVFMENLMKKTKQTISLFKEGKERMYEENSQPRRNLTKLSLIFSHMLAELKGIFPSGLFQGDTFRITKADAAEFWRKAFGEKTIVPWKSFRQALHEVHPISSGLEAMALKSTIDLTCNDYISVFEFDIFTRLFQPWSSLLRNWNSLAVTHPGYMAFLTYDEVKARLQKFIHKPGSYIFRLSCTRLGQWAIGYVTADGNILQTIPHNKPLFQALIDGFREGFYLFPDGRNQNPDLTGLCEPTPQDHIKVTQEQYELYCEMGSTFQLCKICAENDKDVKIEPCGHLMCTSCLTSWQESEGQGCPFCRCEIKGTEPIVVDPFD
# TEST: c-Cbl Biochemical Assay (TR-FRET)
# CONDITION_CONTEXT: hc-Cbl Biochemical Assay (TR-FRET); read-out: TR-FRET hcCbl IC50
OBSERVABLE: IC50

1. CC(=O)NCc1cc(C(F)(F)F)c2oc(-c3cccc(-c4ccc(F)cc4-c4nncn4C)c3)nc2c1 [II-1]; 200 to 1000 nM
2. COC[C@@H](C)NCc1cc(C(F)(F)F)c2oc(-c3cccc(-c4ccc(F)cc4-c4nncn4C)c3)nc2c1 [EN-2]; 200 to 1000 nM
3. N#CC1(CN)CCCC1 [AHN-1]; < 200 nM
4. COc1cc(CN[C@@H]2CCC[C@@H]2O)cc2nc(-c3cccc([C@]4(c5nncn5C)C[C@@H](C)C4)c3)oc12 [AEC-2]; < 200 nM
5. Cn1cnnc1-c1cc(F)ccc1-c1cccc(-c2nc3cc(CNCC(C)(C)F)cc(C(F)(F)F)c3[nH]2)c1 [CD-2, Formic Acid]; 1000 to 10000 nM
6. COC(=O)c1cc(C(F)(F)F)c2oc(-c3cccc(-c4ccccc4-c4nncn4C)c3)nc2c1 [Example G-1]; 10000 to 50000 nM
7. Cn1cnnc1-c1cc(F)ccc1-c1cccc(-c2nc3cc(CNCC4(C#N)CCOCC4)cc(C(F)(F)F)c3o2)c1 [DY-1]; 200 to 1000 nM
8. Cn1cnnc1-c1cc(F)ccc1-c1cccc(-c2nc3cc(CNCC(C)(C)O)cc(F)c3o2)c1 [JN-1]; < 200 nM
9. COCCNCc1cc(C)c2oc(-c3cccc(-c4ccc(F)cc4-c4nncn4C)c3)nc2c1F [JC-1]; 1000 to 10000 nM
10. COc1cc(CN[C@@H]2C[C@H](O)C2(C)C)cc2nc(-c3cccc(-c4ccc(F)cc4-c4nncn4C)c3)oc12 [HF-1]; 200 to 1000 nM
11. COc1cc(CO)cc2nc(-c3cccc(-c4ccc(F)cc4-c4nncn4C)c3)oc12 [DW-3]; 1000 to 10000 nM
12. COC(=O)c1cc(F)c2oc(-c3cc(-c4ccc(C#N)cc4-c4nncn4C)cc(C4CC4)n3)nc2c1 [AHC-1]; 1000 to 10000 nM
13. Cn1cnnc1-c1cnn(C)c1-c1cccc(-c2nc3cc(CN[C@@H]4CCC[C@H]4O)cc(C(F)(F)F)c3o2)c1 [AAV-2]; 10000 to 50000 nM

* * *

# TEST_TARGET: Recombinant human Cbl-b (aa 36-427) (Homo sapiens, UniProt Q13191)
# Sequence (Q13191 36-427): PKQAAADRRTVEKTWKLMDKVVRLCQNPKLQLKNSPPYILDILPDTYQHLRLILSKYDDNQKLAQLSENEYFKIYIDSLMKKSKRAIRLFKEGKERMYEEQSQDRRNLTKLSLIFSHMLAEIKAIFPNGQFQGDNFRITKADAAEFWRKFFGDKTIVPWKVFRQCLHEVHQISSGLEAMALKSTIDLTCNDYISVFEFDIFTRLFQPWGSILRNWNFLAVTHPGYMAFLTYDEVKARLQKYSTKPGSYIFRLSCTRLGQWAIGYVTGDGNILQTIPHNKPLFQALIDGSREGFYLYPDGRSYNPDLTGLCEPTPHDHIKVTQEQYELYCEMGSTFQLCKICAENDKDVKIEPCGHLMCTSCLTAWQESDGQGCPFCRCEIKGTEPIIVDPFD
# TEST: Cbl-b Biochemical Assay (TR-FRET)
# CONDITION_CONTEXT: read-out: TR-FRET hCbl-b IC50
pIC50: −log10 of the molar value.
pIC50: recorded values
OBSERVABLE: pIC50

1) Cn1cnnc1-c1cc(F)ccc1-c1cccc(-c2nc3cc(CN4C(=O)O[C@H]5CCC[C@H]54)cc(C(F)(F)F)c3o2)c1; > 6.70
2) Cc1cc(CNCC2(O)CCC2)cc2nc(-c3cccc(-c4ccc(F)cc4-c4nncn4C)c3)oc12; > 6.70
3) Cn1cnnc1-c1ccccc1-c1cccc(-c2nc3cc(C(=O)O)cc(C(F)(F)F)c3o2)c1; 4.30 to 5.00
4) CO[C@@H](C)[C@H](C)NCc1cc(C)c2oc(-c3cc(-c4ccc(F)cc4-c4nncn4C)cc(C4CC4)n3)nc2c1; > 6.70
5) Cn1cnnc1-c1cc(F)ccc1-c1cc(-c2nc3cc(CNCC4CCC4)cc(F)c3o2)cc(C2CC2)c1; > 6.70
6) CN(C)Cc1cc2nc(-c3cc(-c4ccc(F)cc4-c4nncn4C)cc(C4CC4)n3)oc2c(F)c1F; > 6.70
7) CC(Cc1nncn1C)c1cccc(-c2nc3ccc(OCCN(C)C)c(C(F)(F)F)c3[nH]2)c1 (stereo not shown); 4.30 to 5.00
8) CN(C)C(=O)CNCc1cc(C(F)(F)F)c2oc(-c3cccc(-c4ccc(F)cc4-c4nncn4C)c3)nc2c1; > 6.70
9) Cn1cnnc1-c1cc(F)ccc1-c1cc(-c2nc3cc(CNCC(C)(C)O)ccc3o2)nc(C2CC2)c1; > 6.70
10) Cn1cnnc1[C@]1(c2cccc(-c3nc4cc(CN[C@@H]5CCC[C@@H]5O)cc(C(F)(F)F)c4o3)c2)C[C@@H](C)C1; > 6.70
11) COc1cc(CN(C)[C@@H]2CCC[C@@H]2O)cc2nc(-c3cccc(-c4ccc(F)cc4-c4nncn4C)c3)oc12; > 6.70
12) CCNc1cc(-c2c(-c3nncn3C)cnn2C)cc(-c2nc3cc(CN4CCC5(CC5)C4)cc(C(F)(F)F)c3[nH]2)n1; 5.00 to 6.00
13) CC(C)CC1(CNCc2cc(C(F)(F)F)c3oc(-c4cccc(-c5ccc(F)cc5-c5nncn5C)c4)nc3c2)CCC1; > 6.70
14) CN(Cc1cc(Cl)c2oc(-c3cccc(-c4ccc(F)cc4-c4nncn4C)c3)nc2c1)[C@@H]1CCC[C@@H]1O; > 6.70
15) Cn1cnnc1-c1cc(F)ccc1-c1cccc(-c2nc3cc([C@@H](CO)N4CCC4)cc(C(F)(F)F)c3o2)c1 (single isomer, unassigned); > 6.70
16) Cc1cc(CN(C)CC2(O)CCC2)cc2nc(-c3cc(-c4ccc(F)cc4-c4nncn4C)cc(C4CC4)n3)oc12; > 6.70
